target: Polymerase acidic protein (Influenza A virus (A/Puerto Rico/8/1934(H1N1))) (UniProt P03433); assay: Inhibition of Influenza A (A/PR/8/34/ (H1N1)) RNA polymerase acidin protein endonuclease PA domain assessed as M13mp18 ss DNA at 10 uM
Activity calls are given as the source filed them. The rule behind the calls is not given here.
Choose the fitting class; nothing outside class 1 (active), class 0 (inactive) is accepted.

Worked set:
mol=O=C1c2ccccc2C(=O)N1c1ccccc1CCc1ccccc1 category_label="class 0"
mol=O=C1c2c(Cl)c(Cl)c(Cl)c(Cl)c2C(=O)N1c1cccc(CCc2cccc(O)c2)c1 category_label="class 0"
mol=O=C1c2c(Cl)c(Cl)c(Cl)c(Cl)c2C(=O)N1c1ccc(/C=C/c2ccccc2)cc1 category_label="class 0"
mol=O=C1c2ccccc2C(=O)N1c1ccccc1CCc1ccc(O)c(O)c1 category_label="class 1"

Query: Recorded test outcome, item O=C1c2ccccc2C(=O)N1c1cccc(CCc2ccc(O)c(O)c2)c1
Response: class 1

Query: Recorded test outcome, item O=C1c2c(Cl)c(Cl)c(Cl)c(Cl)c2C(=O)N1c1ccc(CCc2ccccc2)cc1
Response: class 0

Query: Recorded test outcome, item O=C1c2c(Cl)c(Cl)c(Cl)c(Cl)c2C(=O)N1c1ccc(CCc2ccc(O)c(O)c2)cc1
Response: class 0

Query: Recorded test outcome, item COc1ccc(CCc2ccccc2N2C(=O)c3ccccc3C2=O)cc1OC
Response: class 0

Query: Recorded test outcome, item O=C1c2ccccc2C(=O)N1c1ccc(CCc2cccc(O)c2)cc1
Response: class 0

All figures here come from ChEMBL document CHEMBL1177662.
